Biological target: T1, RBFOX1 RRM RbFoxmut (Fox-RRM*) (Homo sapiens, UniProt Q9NWB1 109-208, R118D;E147R;N151S;E152T)
T1 sequence: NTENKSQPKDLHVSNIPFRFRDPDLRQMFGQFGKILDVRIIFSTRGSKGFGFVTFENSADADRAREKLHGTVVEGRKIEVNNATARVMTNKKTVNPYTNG
Test: EMSA; HiTS-Eq, 1 nM pool, 10 min; buffer printed only for the single-RNA assays: 10 mM Tris pH 7.5, 150 mM NaCl, 3.4 mM EDTA, 0.001% NP-40, 30 C
Details: tags: His6 N-terminal (pET28a); label: 5' 32P
Over roughly 16,000 sequences, “ka relative to ugcaugu” has its median near 0.096; the highest 2% begin near 0.35. Many of the other results were omitted from the sample, so the highest values are more common in it than they were.
The following binders are shown together with reported binding signal values.

binder	binding signal
GGCAUUU (DNA:RNA) RNA: GGGAGACCGGAAUUCAGAUUGUCCGGCAUUUUUAAAUCCCGUCGUAGCCACCA DNA 1: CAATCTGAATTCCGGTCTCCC DNA 2: TGGTGGCTACGACGGGATT	0.0782 KA relative to UGCAUGU
UGCGACA (DNA:RNA) RNA: GGGAGACCGGAAUUCAGAUUGUCCUGCGACAUUAAAUCCCGUCGUAGCCACCA DNA 1: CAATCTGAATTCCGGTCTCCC DNA 2: TGGTGGCTACGACGGGATT	0.0626 KA relative to UGCAUGU
CGGCAUA (DNA:RNA) RNA: GGGAGACCGGAAUUCAGAUUGUCCCGGCAUAUUAAAUCCCGUCGUAGCCACCA DNA 1: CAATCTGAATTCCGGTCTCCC DNA 2: TGGTGGCTACGACGGGATT	0.108 KA relative to UGCAUGU
ACGGGGG (DNA:RNA) RNA: GGGAGACCGGAAUUCAGAUUGUCCACGGGGGUUAAAUCCCGUCGUAGCCACCA DNA 1: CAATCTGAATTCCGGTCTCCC DNA 2: TGGTGGCTACGACGGGATT	0.118 KA relative to UGCAUGU
UGCUUGU (DNA:RNA) RNA: GGGAGACCGGAAUUCAGAUUGUCCUGCUUGUUUAAAUCCCGUCGUAGCCACCA DNA 1: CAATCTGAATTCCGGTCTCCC DNA 2: TGGTGGCTACGACGGGATT	0.428 KA relative to UGCAUGU
AGGCAUA (DNA:RNA) RNA: GGGAGACCGGAAUUCAGAUUGUCCAGGCAUAUUAAAUCCCGUCGUAGCCACCA DNA 1: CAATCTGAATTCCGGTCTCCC DNA 2: TGGTGGCTACGACGGGATT	0.11 KA relative to UGCAUGU
ACCUCGU (DNA:RNA) RNA: GGGAGACCGGAAUUCAGAUUGUCCACCUCGUUUAAAUCCCGUCGUAGCCACCA DNA 1: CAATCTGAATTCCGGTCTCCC DNA 2: TGGTGGCTACGACGGGATT	0.106 KA relative to UGCAUGU
GUCGUGC (DNA:RNA) RNA: GGGAGACCGGAAUUCAGAUUGUCCGUCGUGCUUAAAUCCCGUCGUAGCCACCA DNA 1: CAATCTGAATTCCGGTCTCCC DNA 2: TGGTGGCTACGACGGGATT	0.167 KA relative to UGCAUGU
AGUUUUA (DNA:RNA) RNA: GGGAGACCGGAAUUCAGAUUGUCCAGUUUUAUUAAAUCCCGUCGUAGCCACCA DNA 1: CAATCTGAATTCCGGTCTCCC DNA 2: TGGTGGCTACGACGGGATT	0.101 KA relative to UGCAUGU
UUGUUGC (DNA:RNA) RNA: GGGAGACCGGAAUUCAGAUUGUCCUUGUUGCUUAAAUCCCGUCGUAGCCACCA DNA 1: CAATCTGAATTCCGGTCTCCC DNA 2: TGGTGGCTACGACGGGATT	0.148 KA relative to UGCAUGU
GGGCAUG (DNA:RNA) RNA: GGGAGACCGGAAUUCAGAUUGUCCGGGCAUGUUAAAUCCCGUCGUAGCCACCA DNA 1: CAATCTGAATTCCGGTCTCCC DNA 2: TGGTGGCTACGACGGGATT	1.23 KA relative to UGCAUGU
GGGGGCA (DNA:RNA) RNA: GGGAGACCGGAAUUCAGAUUGUCCGGGGGCAUUAAAUCCCGUCGUAGCCACCA DNA 1: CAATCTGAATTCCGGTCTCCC DNA 2: TGGTGGCTACGACGGGATT	0.128 KA relative to UGCAUGU
AAAUCAC (DNA:RNA) RNA: GGGAGACCGGAAUUCAGAUUGUCCAAAUCACUUAAAUCCCGUCGUAGCCACCA DNA 1: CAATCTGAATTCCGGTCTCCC DNA 2: TGGTGGCTACGACGGGATT	0.0617 KA relative to UGCAUGU
GGCAUGU (DNA:RNA) RNA: GGGAGACCGGAAUUCAGAUUGUCCGGCAUGUUUAAAUCCCGUCGUAGCCACCA DNA 1: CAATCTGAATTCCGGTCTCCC DNA 2: TGGTGGCTACGACGGGATT	0.834 KA relative to UGCAUGU
AGGCAUC (DNA:RNA) RNA: GGGAGACCGGAAUUCAGAUUGUCCAGGCAUCUUAAAUCCCGUCGUAGCCACCA DNA 1: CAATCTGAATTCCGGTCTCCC DNA 2: TGGTGGCTACGACGGGATT	0.222 KA relative to UGCAUGU
